# assayed.target: Cytochrome P450 2C19 (Homo sapiens) (UniProt P33261)
# Sequence (P33261 whole entry, looked up): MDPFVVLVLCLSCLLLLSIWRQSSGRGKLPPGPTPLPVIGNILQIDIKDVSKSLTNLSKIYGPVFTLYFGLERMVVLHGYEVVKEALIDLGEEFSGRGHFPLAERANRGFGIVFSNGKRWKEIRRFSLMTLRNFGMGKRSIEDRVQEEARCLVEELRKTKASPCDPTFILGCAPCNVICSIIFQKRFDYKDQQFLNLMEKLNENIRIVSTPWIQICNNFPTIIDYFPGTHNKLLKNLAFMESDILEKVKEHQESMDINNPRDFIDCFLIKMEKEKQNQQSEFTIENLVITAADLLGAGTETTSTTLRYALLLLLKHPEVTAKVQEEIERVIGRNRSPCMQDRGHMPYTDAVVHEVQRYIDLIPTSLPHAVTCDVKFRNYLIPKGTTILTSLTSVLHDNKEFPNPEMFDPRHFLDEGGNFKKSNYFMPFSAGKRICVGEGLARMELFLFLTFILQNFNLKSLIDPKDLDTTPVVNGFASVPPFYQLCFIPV
# run.description: Cytochrome panel assay with activity outcomes; further: on the % scale 0 is the no-effect control and ±100 the full control effect
# test.settings: recombinant CYP, pro-luciferin dealkylation, luminescence, p450-cyp2c19; series mostly up to 57.1 µM
Out of some 16,000 compounds screened, about 5,800 (36%) were called active. Not shown: some 23% with an inconclusive outcome. This is one part of the list.
observed.property: activity, negative = inhibition

For orientation, consider the following solved cases.
O=C(O)c1cc(C(=O)C(=O)c2cc(C(=O)O)c(O)c3ccccc23)c2ccccc2c1O = -29.3% [at 11.4 µM] (inactive)
NCC[C@H](N)C(=O)O = -4.53% [at 11.4 µM] (inactive)
C[C@@H](c1ccccc1)N1C(=O)[C@H]2[C@H]3[C@H](O)[C@H](O)C/C(=N/OC[C@@H](O)COCc4ccco4)[C@H]3CC[C@@H]2C1=O = -25% [at 11.4 µM] (inactive)
Cn1c(N)c(N=Nc2ccc(S(N)(=O)=O)cc2)c(=O)n(C)c1=O = 76% [at 11.4 µM] (inactive)
CN(C)CCCn1c2ccccc2c2cnccc21 = 26.7% [at 11.4 µM] (inactive)
FC(F)(F)c1nc2nc(Cl)c(Cl)nc2n1CCCN1CCOCC1 = -10.6% [at 11.4 µM] (inactive)
CCN1C(=O)[C@H]2[C@H]3[C@H](O)[C@H](O)C/C(=N/O[C@@H]4O[C@H](COC(C)=O)[C@@H](OC(C)=O)[C@H](OC(C)=O)[C@H]4OC(C)=O)[C@@H]3CC[C@@H]2C1=O = 34.2% [at 11.4 µM] (inactive)
O=C(O)[C@@H]1CS[C@@]2(CCCN(Cc3ccccc3)C2)N1 = 7.34% [at 11.4 µM] (inactive)

Ask: Could you share which activity, negative = inhibition value was measured for CO[C@H]1COC(=O)[C@@H](C)COC(=O)[C@@H](Cc2ccccc2)NC(=O)C/C=C\[C@H]1C ?
Reply: 10.6% [at 11.4 µM] (inactive)
